target_or_system: T1R1/T1R3 receptor (Felis catus)
procedure_summary: Example 8: PAM screening of transmembrane compounds with GMP and Ala on T1R1/T1R3 in HEK293 cells
Format: cell-based, cat
experimental_parameters: in the presence of GMP and Alanine, in words
assay_metric: PAM profile assessment

COC(=O)[C@@H](Cc1ccccc1)NCc1ccccc1.Cl = PAM activity
O=C(CN1C(=O)C(=O)N(Cc2ccccc2)C1=O)c1ccc2c(c1)OCCCO2 = PAM activity
COC(=O)[C@H](CC(C)C)NCc1ccccc1.Cl = PAM activity

###

target_or_system: cat T1R1/T1R3 receptor (Felis catus, UniProt E3UMS2)
procedure_summary: cell-based
experimental_parameters: hek293 cells
assay_metric: Max resp % of IMP

Nc1ncnc2c1nc(Cl)n2[C@@H]1O[C@H](COP(=O)(O)O)[C@@H](O)[C@H]1O [8-Chloroadenosine-5′-O-monophosphate] = 63.6 % of IMP
CNc1ccccc1C(=O)O[C@H]1C[C@H](n2cnc3c(=O)[nH]c(N)nc32)O[C@@H]1COP(=O)(O)O = 23.7 % of IMP

O=c1ccn([C@H]2C[C@H](O)[C@@H](COP(O)(O)=S)O2)c(=O)[nH]1 [2′-Deoxyuridine-5′-O-monophosphosphorothioate (5′-dUMPS)] yielded Max resp % of IMP of 43.4 % of IMP

###

target_or_system: T1R1/T1R3 receptor (Felis catus, UniProt E3UMS2)
procedure_summary: cell-based
Assay type: cell-based
experimental_parameters: in the presence of 20 mM alanine
assay_metric: Max resp ΔF/F +Alanine (20 mM)
Number only, no unit.

O=C(NCCc1ccccc1)C(=O)NCc1cccnc1 = 0.3750
COc1ccc(C(=O)NC(C)c2ccccc2)cc1C (stereo not shown) = 0.51
CC1CCCC(NC(=O)c2ccc3c(c2)OCO3)C1C (stereo not shown) = 0.225

For CCCC(C)NC(=O)/C=C/c1ccc(OC)c(OC)c1 (stereo not shown) the molecule record lists Max resp ΔF/F +Alanine (20 mM) as 0.4375

###

target_or_system: T1R1/T1R3 receptor (Felis catus, UniProt E3UMS2)
procedure_summary: cell-based
Format: cell-based
pEC50: −log10 of the molar value.
assay_metric: pEC50

CCOC(=O)C(NC(=O)c1ccc2c(c1)OCO2)C(C)C (centres unmarked) = < 2.00

We now examine a further compound.
Item: CCCC(C)NC(=O)/C=C/c1ccc(OC)c(OC)c1 (centres unmarked) | pEC50: < 2.00

###

target_or_system: T1R1/T1R3 receptor (Felis catus, UniProt E3UMS2)
procedure_summary: Example 8: PAM screening of transmembrane compounds with GMP and Ala on T1R1/T1R3 in HEK293 cells
Format: cell-based, cat
experimental_parameters: compound at 0.01, 0.1, 1 mM in combination with GMP+Ala mixtures (T1-T4); PAM if response to the combination is greater than the sum of the responses to compound alone and to GMP+Ala alone
assay_metric: T1R1/T1R3 PAM

Would you please look over these solved cases?
O=C(O)[C@H](Cc1ccc(O)cc1)NCc1ccccc1 = No
O=C(CN1C(=O)C(=O)N(CCc2cccs2)C1=O)c1ccc2c(c1)OCO2 = No
COC(=O)C(NCc1ccccc1)c1ccccc1 (stereo not drawn) [Formula 19, Methyl-2-benzylamino-2-phenylacetate] = Yes
O=C(CN1C(=O)C(=O)N(CCc2cccs2)C1=O)c1cccc2ccccc12 = No
O=C(CN1C(=O)C(=O)N(Cc2ccccc2)C1=O)c1ccc(Br)cc1 = No

Summary for this compound, N[C@@H](Cc1ccc(O)cc1)C(=O)OCc1ccccc1 : T1R1/T1R3 PAM is No

Entry COC(=O)[C@@H](Cc1ccccc1)NCc1ccccc1.Cl — recorded T1R1/T1R3 PAM = Yes

COC(=O)[C@H](Cc1ccccc1)NCc1ccccc1.Cl has a reported T1R1/T1R3 PAM of Yes
